test system: 996289-038-R-J1-PDC spheroid viability; assay: Anticancer human tumor 996289-038-R-J1-PDC patient-derived colon adenocarcinoma cell line growth inhibition [PI3K]; settings: curve of first compound; second compound 1 µM; spheroids with HUVEC and MSC;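 note: spheroids exposed to compounds for seven days before viability read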
pIC50: −log10 of the molar value.
METRIC_NAME: pIC50

P: CCCS(=O)(=O)Nc1ccc(F)c(C(=O)c2c[nH]c3ncc(-c4ccc(Cl)cc4)cc23)c1F + Cc1nc(NC(=O)N2CCCC2C(N)=O)sc1-c1ccnc(C(C)(C)C(F)(F)F)c1
Q: CC(C)n1nc(-c2ccc3oc(N)nc3c2)c2c(N)ncnc21 + CC(Nc1ncnc2nc[nH]c12)c1cc2cccc(Cl)c2c(=O)n1-c1ccccc1
stdin: // compare measured pIC50 between P and Q ; output the lower one I would appreciate it if you answered with the label of your choice.
stdout: P
